The reported measurements were obtained from ChEMBL document CHEMBL2021817.

method-summary: Therapeutic index, ratio of TD50 for human HG23 cells to ED50 for Norovirus
Format: cell-based
condition-notes: read-out: Ratio TD50/ED50
assay-metric: selectivity ratio
Format: numeric value only, no unit, no commentary.

• Cc1cc2c(c(=O)o1)C=C1CC[C@H](C(C)CNCc3ccnc4ccccc34)C[C@@H]1O2 (mixture of isomers) = 40.2
• Cc1ccc2nc(CNCC(C)[C@H]3CCC4=Cc5c(cc(C)oc5=O)O[C@H]4C3)ccc2c1 (mixture of isomers) = 10.3
• Cc1ccc2nccc(CNCC(C)[C@H]3CCC4=Cc5c(cc(C)oc5=O)O[C@H]4C3)c2c1 (mixture of isomers) = 18

Next compound, please.
selectivity ratio in this record for Cc1cc2c(c(=O)o1)C=C1CC[C@H](C(C)CNC(=O)c3ccnc4ccccc34)C[C@@H]1O2 (some centres undefined) : 18.8

----------
method-summary: Cytotoxicity against human HG23 cells after 48 hrs
Type: cell-based
condition-notes: read-out: TD50
assay-metric: CC50 at 48 h (µM)
Entry rule: numbers only, all in µM.

- Cc1cc2c(c(=O)o1)C=C1CC[C@H](C(C)CNC(=O)c3ccnc4ccccc34)C[C@@H]1O2 (some centres undefined): 104

CC50 at 48 h in this record for Cc1cc2c(c(=O)o1)C=C1CC[C@H](C(C)CNCc3ccnc4ccccc34)C[C@@H]1O2 (mixture of isomers) : 96.4

----------
method-summary: Cytotoxicity against human HG23 cells after 48 hrs
Type: cell-based
condition-notes: read-out: TD50
Overview of reported CC50 at 48 h across a group of molecules:

Observe how each entry below is paired with its result.
* Cc1cc2c(c(=O)o1)C=C1CC[C@H](C(C)CNCc3cccc4cccnc34)C[C@@H]1O2 (mixture of isomers) | > 160 µM
* Cc1cc2c(c(=O)o1)C=C1CC[C@H](C(C)CN)C[C@@H]1O2 (mixture of isomers) | > 200 µM
* Cc1cc2c(c(=O)o1)C=C1CC[C@H](C(C)CNCc3ccc4ccccc4n3)C[C@@H]1O2 (mixture of isomers) | > 200 µM
* Cc1ccc2nc(CNCC(C)[C@H]3CCC4=Cc5c(cc(C)oc5=O)O[C@H]4C3)ccc2c1 (mixture of isomers) | 83.7 µM
* Cc1cc2c(c(=O)o1)C=C1CC[C@H](C(C)CNCc3ccnc4c3ccc3ccccc34)C[C@@H]1O2 (mixture of isomers) | > 200 µM

Next molecule, please.
CC50 at 48 h in this record for Cc1ccc2nccc(CNCC(C)[C@H]3CCC4=Cc5c(cc(C)oc5=O)O[C@H]4C3)c2c1 (mixture of isomers) : 61.2 µM

----------
Overview of reported selectivity ratio across a group of compounds:
method-summary: Therapeutic index, ratio of TD50 for human HG23 cells to ED50 for Norovirus
Assay type: cell-based
condition-notes: read-out: Ratio TD50/ED50

- Cc1cc2c(c(=O)o1)C=C1CC[C@H](C(C)CNCc3cccc4cccnc34)C[C@@H]1O2 (mixture of isomers): > 16
- Cc1cc2c(c(=O)o1)C=C1CC[C@H](C(C)CNCc3cc(C)c4ccccc4n3)C[C@@H]1O2 (mixture of isomers): > 40
- Cc1cc2c(c(=O)o1)C=C1CC[C@H](C(C)CNCc3cccnc3)C[C@@H]1O2 (mixture of isomers): > 50
- Cc1cc2c(c(=O)o1)C=C1CC[C@H](C(C)CNCc3ccc4ccccc4n3)C[C@@H]1O2 (mixture of isomers): > 58.8

Next compound, please.
selectivity ratio in this record for Cc1cc2c(c(=O)o1)C=C1CC[C@H](C(C)CNCc3ccnc4c3ccc3ccccc34)C[C@@H]1O2 (mixture of isomers) : > 40
